Recorded values, source the array DNA melting data of Ke et al. (doi:10.1101/2024.01.08.574731).

Assay: melting temperature; fluorescence melt of hairpins on a sequencing array, two-state fit, raised by 9.35 °C to match UV melts
Conditions: sodium 0.088 M
quantity: Tm
Express your answer as a number followed by its unit.

In the examples that follow, each entry is paired with its recorded Tm.
>>> obs_value("GGCAGCGGAAACGCTGTC (.(((((....))))).)")
"67.2 °C"
>>> obs_value("GATCGTTTCAACGATC ((((((....))))))")
"59.7 °C"

Hi there! I need Tm for each item below, if you can.
1. CGCGCGGAAACGCCGGCG ((((((....)))..)))
2. GGTCATGAAAATGACC ((((((....))))))

1. 54.3 °C
2. 59.5 °C

----------
What folding enthalpy was measured for each of the following?
Assay: folding enthalpy; higher = less favourable; fluorescence melt of hairpins on a sequencing array, two-state fit
Details: sodium 0.088 M
Give bare numbers, in kcal/mol.

In the examples that follow, each entry is paired with its recorded folding enthalpy.
>>> obs_value("GGACGCACGAAAGTGTCC (((..(((....))))))")
-21.4
>>> obs_value("GTCTTACGAAAGTAGAC (((.(((....))))))")
-23.8
>>> obs_value("GTTTCAGAAATGAAAC ((((((....))))))")
-27.3

Hi there! I need folding enthalpy for each item below, if you can.
1. GAATCGGGAAACCAATTC ((((.((....)).))))
2. GATCAGTCTCCTGATC ((((((....))))))
3. GCAGCCGAAAGGCGATGC ((((((....)))..)))
4. GTGAGTGCGAAAGCACAC (((..(((....))))))
5. GGATTCGAAAGAAGATCC ((((((....)))..)))

[-16.3, -39.1, -14.2, -12.5, -12.2]

Hi there! I need folding enthalpy for each item below, if you can.
1. GATCGGCTACCCGATC ((((((....))))))
2. GTGCGCGGAAACGTGCAC ((((.((....)).))))
3. GCTTATGGAAACATAAGC (((((((....)))))))
4. GCCGCGCGAAAGCACTGC ((.(.((....)).).))

1: -41; 2: -35.4; 3: -40.6; 4: -18.7

----------
Assay: folding enthalpy; higher = less favourable; fluorescence melt of hairpins on a sequencing array, two-state fit
Details: sodium 0.088 M
What folding enthalpy was measured for each of the following?

In the examples that follow, each entry is paired with its recorded folding enthalpy.
>>> obs_value("GGATGACGAAAGTCTTCC (((.(((....))).)))")
"-42.5 kcal/mol"
>>> obs_value("GAGGACGAAAGTCTACTC ((((((....)))..)))")
"-12 kcal/mol"
>>> obs_value("GACTTCACGAAAGTGGTC (((..(((....))))))")
"-12.1 kcal/mol"
>>> obs_value("GACAAGCGAAAGCTCGTC (((.(((....))).)))")
"-21 kcal/mol"
>>> obs_value("GAAAGCGGAAACGCTTTC (((((((....)))))))")
"-41 kcal/mol"
>>> obs_value("GCCTCCGGAAACGGGGGC (((.(((....))).)))")
"-31 kcal/mol"

We next turn to a different sequence, shown below.
Request the reported folding enthalpy associated with GAGCCCGAAAGGGAGCTC ((((((....)))..)))
-20 kcal/mol
